Where do these numbers come from? They come from patent US12221432B2.

assay: Pharmacokinetics study in rats (cassette); assay type: in vivo; settings: female, SD, plasma, po; rat cassette PK, p.o. 2 mg/kg
Structures can show the parent of a compound that is named as a salt.
Property measured: AUC(0-t) (µM·h)

I = CC/C(=C(/c1ccc(OCCNC/C=C/C(=O)N(C)C)nc1)c1[nH]c2ccccc2c1Cl)c1ccccc1 [Compound 3 monohydrochloride]
II = CC/C(=C(/c1ccc(OCCNC/C=C/C(=O)N(C)C)nc1)c1[nH]c2ccccc2c1Cl)c1cccc(OC)c1 [Compound 4 monohydrochloride]
Query: Lab log: flag the item ( I or II ) with the smaller AUC(0-t) figure. Reply with the label of the item you choose.
Result: II
